Values from patent US20200079876A1

# reported kon; entries follow
Target: T1, Pro-C1s
T1 construct: also called purified pro-C1s protein
T1 chain: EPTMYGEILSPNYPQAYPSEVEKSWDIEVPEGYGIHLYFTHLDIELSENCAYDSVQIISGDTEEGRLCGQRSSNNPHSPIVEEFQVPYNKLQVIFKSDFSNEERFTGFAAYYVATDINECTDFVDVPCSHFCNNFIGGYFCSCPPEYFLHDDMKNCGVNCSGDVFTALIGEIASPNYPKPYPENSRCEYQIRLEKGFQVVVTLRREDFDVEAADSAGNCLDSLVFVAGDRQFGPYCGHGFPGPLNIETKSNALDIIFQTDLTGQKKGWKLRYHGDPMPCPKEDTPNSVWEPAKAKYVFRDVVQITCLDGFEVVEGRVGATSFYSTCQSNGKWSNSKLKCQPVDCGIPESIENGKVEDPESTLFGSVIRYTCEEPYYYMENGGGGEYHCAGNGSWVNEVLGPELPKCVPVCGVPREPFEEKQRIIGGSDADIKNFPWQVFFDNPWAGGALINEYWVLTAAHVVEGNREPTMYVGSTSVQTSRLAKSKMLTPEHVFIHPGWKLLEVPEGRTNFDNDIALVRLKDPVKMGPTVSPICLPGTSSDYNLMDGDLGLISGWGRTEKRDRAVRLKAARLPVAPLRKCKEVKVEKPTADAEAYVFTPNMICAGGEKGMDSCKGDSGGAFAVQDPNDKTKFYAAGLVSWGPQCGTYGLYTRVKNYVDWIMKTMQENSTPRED
Test: bio-layer interferometry (BLI), kinetic analysis
Give the number; M⁻¹ s⁻¹ is assumed, so skip it.

Solved entries (count: 4):
antibody IPN-M18 (antibody, V domains shown, Mouse monoclonal antibody (NZBW hybridoma)) VH: EVQLQQSGPELVKPGASVKISCKASGYSFTGYYIHWVKQSPEKSLEWIGEINPTTNDTTYNQKFKAKATLTVDKSSNTAYMQLKSLTSEDSAVYYCSRDISGPAWFAYWGQGTLVTVSA VL: DIVLTQTTAIMSASPGEKVTMTCSASSSISYMYWFQQKPGTSPKRWIYDTSKLASGVPARFSGSGSGTSYSLTISTMEAEDAATYYCHQRSSDPTFGGGTKLEINR :: 209000
antibody IPN-M14 (antibody, V domains shown, Mouse monoclonal antibody (NZBW hybridoma)) VH: EVKLQQSGAELVRPGASVKLSCTASGFNIKDDYIHWVKQRPEQGLEWIGRIDPADGHTKYAPKFQVKATITADTSSNTAYLQLSSLTSEDTAVYYCARYGYGREVFDYWGQGTTLTVSS VL: DIVLTQFPTFLAVFLGQRAPISCKASQSVDYDGDSYMNWFQQKTGQPPKILIYDASNLEFGIPTRFSGSGFGTDFPLNIHPVEEEDAAIYFCQQSNEDPWTFGGGPKLEIK :: 16500
antibody IPN-M11 (antibody, V domains shown, Mouse monoclonal antibody (NZBW hybridoma)) VH: QVQLQQSGAELVRPGASVKLSCTASGFNIKDDYIHWVKQRPEQGLEWIGRIDPADDHTKYAPKFQDKATMTADTSSNTACLQLNSLTSEDTAVYYCAIYGSGWAWFPYWGQGTLVSVSA VL: DIVMTQSPDYLAVSLGQRAPISCKASQSVDYDGDSYMNWYQQKPGQPPKLLIYAASNLEFGIPTRFSGSGFGTDFPLNIHPVEEEDAATYYCQQSNEDPWTFGGGPKLEIK :: 9330
antibody IPN-M29 (antibody, V domains shown, Mouse monoclonal antibody (NZBW hybridoma)) VH: EVQLQQSGPELVKPGASVKISCKASGYSFTGFYMQWVKQSPEKNLEWIGEINPTTGDETYNQKFQAKATLTVDKSSSTAYMQLKSLTSEDSAVYFCASDFYDGSFAWFEYWGKDYLTVSA VL: DIVLTQSPVIMSASPGEKVTMTCSASSSISYIHWYQQKPGTSPKRWIYDTSKLASGVPARFSGSGSGTSYSLTISSMEAEDAATYYCHQRSSYLTFGSGTKLEIK :: 73600

As a next step, examine the binder that follows.
Reported kon of antibody IPN-M15 (antibody, V domains shown, Mouse monoclonal antibody (NZBW hybridoma)) VH: EVKLEQSGAELVRPGASVKLSCTASGFNIKDDYIHWVKQRPEQGLEWIGRIDPADDHTKYAPKFQDKATMTADTSSNTACLQLNSLTSEDTAVYYCAIYGSGWAWFPYWGQGTLVSVSA VL: FALMTQSTDYLAVSLGQRATISCKASQSVDYDGDSYMNWYQQKPGQPPKLLIYAASNLESGIPTRFSGSGFGTDFTLNIHPVEEEDAATYYCQQSNEDPWTFGGGPKLEIK : 57500
